Test: folding stability dG unfold (combined trypsin and chymotrypsin); higher = more stable
// values below are reported folding stability dG unfold
The answer is to be given in kcal/mol; state only the numeric part.

Recorded folding stability dG unfold, per entry:
- construct_sequence: "SAGGAPDIPILTASYSPDGVLYSSTTTPINGTLHYFPEDNPVVLATDPATGLTVPVGTLEDVKRLIASAGGS [r8_232_TrMRF]"
  measurement_kind: "folding stability dG unfold"
  meas_value: -0.37
- construct_sequence: "SAGGSAGGSAGPIDPNSTRPVPADYVVIRIRGDEKPRYFVVHPEYAKEFAERHGAELYYESAGGSAGGSAGG [r17_109_TrMRF]"
  measurement_kind: "folding stability dG unfold"
  meas_value: 0.44

With those in mind, consider the next sequence.
// query Would you kindly share the measured folding stability dG unfold for SAGGSAGGSKTIEIVVPPNTTPEEIAKKLKELFPDAKITSVEVYVDKKTKKIVYVKVKIEVKPSAGGSAGGS [r12_822_TrROS_Hall] ?
// result 3.46

====

Assay: folding stability dG unfold from trypsin proteolysis; higher = more stable
# label = bin(measured folding stability dG unfold), where bins are interval 1: < 0.5 kcal/mol; interval 2: ≥ 0.5 kcal/mol and < 2 kcal/mol; interval 3: ≥ 2 kcal/mol

- construct_sequence: "SAGKKKKFKIVSVEVEVKEVNGKLVIKMKVKDKKTGKTYEITMTLKVVDKKTKKTYTKTLKVTIKLPKSAGG [r19_129_TrROS_Hall]"
  discrete_label: "interval 3"
- construct_sequence: "SAHTISIRIPPNMKPITAEELKKEPGYEVKDINVYPNEDGNMYFTIEVEPGMPPKKMDEILERIRDRMGSAG [r14_421_TrROS]"
  discrete_label: "interval 2"
- construct_sequence: "SAGGGKTVVLVTHPDGTPTTITFDPEKPVATITYPDGTTETLPVPPDKTIADLAKALPADYTAVFAPASAGG [r13_696_TrMRF]"
  discrete_label: "interval 1"
- construct_sequence: "SAGGMTITIEKEGDTLKVTITIRDAATNETYTVEATLTRKEDGSLTLEIRFEDGSTKTINLKDIKLVSAGGS [r16_154_TrROS_Hall]"
  discrete_label: "interval 3"
- construct_sequence: "SAGGSAGGSMTITYDPVSNTYTVNLSLEGGTKTYTVPSLEALKATLKAEGLPWGPPPITTVSASAGGSAGGS [r12_834_JUSTAS]"
  discrete_label: "interval 3"

// query Record SAGGSAGGSAGTITINGKPITIEKLDNGYYKVKVNGKWYEIKPGEKIELPKGATVSIEKVSAGGSAGGSAGG [r11_147_TrROS_Hall] — which class?
// result interval 2

// query Record SAGGSAGGPLENDIPIPLTVPLPGPGTAELFLLPSTGEVLALVEGKPYLVSLEDLKDGVFRLGLSAGGSAGG [r6_939_TrMRF] — which class?
// result interval 1

// query Record SAGGSADDVKIKVEYERNPENGYGQITVEVEDPDGKDLKVEIMFPNMTPEEMEKQAKDIAKEIAKKSAGGSA [r15_526_TrROS] — which class?
// result interval 1

// query Record SAGGSAGGSAGGKEEEARKLAEELAKELGLEIVEVKVERTEKEVKVTIRIKKDGKEIEFSAGGSAGGSAGGS [r10_161_TrROS_Hall] — which class?
// result interval 2

// query Record SAGGSAGGSAGGLVPPDAVIPTETTAEEPVYVIDPVTGELTPIGPGVVRRKITRRVPRPSAGGSAGGSAGGS [r10_1115_JUSTAS] — which class?
// result interval 1
